# Tested on: patient-derived Champions' human AML models
# test method notes: Ex vivo AML PDX cell viability (Cell Titer Glo), 30 models
# Format: cell-based
# assay conditions: Homo sapiens, 11 PDX models, sensitive responders
pEC50: −log10 of the molar value.
endpoint name: pEC50

Req: Fill in reported pEC50 for this entry: "CNC(=O)c1ncn2cc(-c3c(F)ccc(NS(=O)(=O)c4cc(Cl)cnc4OC)c3F)ncc12"
Resp: > 7.00

====

# Test system: CTG-3441
# test method notes: Ex vivo AML PDX cell viability (Cell Titer Glo)
# Assay type: cell-based
# assay conditions: Homo sapiens, 144 h; PDX model CTG-3441, 6 days; read-out: HC-7366 EC50
endpoint name: pEC50
Value format note: pEC50 is -log10 of concentration (mol/L); just state the number.

Req: Fill in reported pEC50 for this entry: "CNC(=O)c1ncn2cc(-c3c(F)ccc(NS(=O)(=O)c4cc(Cl)cnc4OC)c3F)ncc12"
Resp: 3.99
